Biological target: full-length beta-Catenin (Uniprot ID P35222) (Homo sapiens)
Construct: 10 nM full-length beta-Catenin (Uniprot ID P35222)
Sequence (P35222 1-781): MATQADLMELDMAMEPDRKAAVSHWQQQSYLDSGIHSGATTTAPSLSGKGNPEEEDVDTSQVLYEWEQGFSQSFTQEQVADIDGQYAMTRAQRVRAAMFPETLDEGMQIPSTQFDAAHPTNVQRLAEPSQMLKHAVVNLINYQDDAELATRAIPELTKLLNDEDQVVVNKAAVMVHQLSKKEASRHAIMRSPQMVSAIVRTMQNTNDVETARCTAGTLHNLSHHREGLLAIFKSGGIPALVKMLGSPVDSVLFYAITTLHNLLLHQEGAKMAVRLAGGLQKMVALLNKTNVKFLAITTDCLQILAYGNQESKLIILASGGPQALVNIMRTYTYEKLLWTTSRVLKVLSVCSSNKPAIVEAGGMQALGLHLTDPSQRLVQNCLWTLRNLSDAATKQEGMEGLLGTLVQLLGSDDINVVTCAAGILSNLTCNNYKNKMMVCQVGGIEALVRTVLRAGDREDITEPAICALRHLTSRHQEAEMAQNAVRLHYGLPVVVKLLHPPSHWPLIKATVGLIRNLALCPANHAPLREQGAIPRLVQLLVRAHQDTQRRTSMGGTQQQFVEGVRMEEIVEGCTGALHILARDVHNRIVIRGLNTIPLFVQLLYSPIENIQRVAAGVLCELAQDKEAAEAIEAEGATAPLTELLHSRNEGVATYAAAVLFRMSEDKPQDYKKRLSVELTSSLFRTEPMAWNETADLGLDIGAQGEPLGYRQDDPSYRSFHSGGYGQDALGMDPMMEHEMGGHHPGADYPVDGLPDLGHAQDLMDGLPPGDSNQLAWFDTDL
Test: Fluorescence polarization IC50 (beta-catenin / 5FAM-TCF4 10-53 competition)
Format: binding
Details: fluorescence polarization; read-out: beta-Catenin FP IC50
ENDPOINT LABEL: IC50

[[record]]
compound = "CC(=O)N1CCC[C@]12CC=CCCCC1(CCCC=CCCCOC(=O)N3CC[C@@](C(=O)N[C@@H](Cc4ccccc4)C(=O)N[C@@H](Cc4csc5ccccc45)C(=O)N[C@@H](CCC(N)=O)C(N)=O)(C3)NC(=O)[C@H](Cc3c[nH]c4ccccc34)NC(=O)[C@H](Cc3ccccc3)NC(=O)[C@H](C)NC(=O)[C@H](CCCCNC(C)C)NC(=O)[C@H]([C@@H](C)O)NC(=O)[C@H](CC(=O)O)NC1=O)NC(=O)[C@H](CC(C)(C)C)NC(=O)[C@H](CC(N)=O)NC2=O (stereo partly shown) [I-1600]"
measured_on = "full-length beta-Catenin (Uniprot ID P35222) (Homo sapiens)"
endpoint_label = "IC50"
value_observed = "4.29 µM"

